Examples of compounds with documented Imax follow.
systemUnderTest: Broad substrate specificity ATP-binding cassette transporter ABCG2 (Homo sapiens, UniProt Q9UNQ0)
Sequence (Q9UNQ0 whole entry): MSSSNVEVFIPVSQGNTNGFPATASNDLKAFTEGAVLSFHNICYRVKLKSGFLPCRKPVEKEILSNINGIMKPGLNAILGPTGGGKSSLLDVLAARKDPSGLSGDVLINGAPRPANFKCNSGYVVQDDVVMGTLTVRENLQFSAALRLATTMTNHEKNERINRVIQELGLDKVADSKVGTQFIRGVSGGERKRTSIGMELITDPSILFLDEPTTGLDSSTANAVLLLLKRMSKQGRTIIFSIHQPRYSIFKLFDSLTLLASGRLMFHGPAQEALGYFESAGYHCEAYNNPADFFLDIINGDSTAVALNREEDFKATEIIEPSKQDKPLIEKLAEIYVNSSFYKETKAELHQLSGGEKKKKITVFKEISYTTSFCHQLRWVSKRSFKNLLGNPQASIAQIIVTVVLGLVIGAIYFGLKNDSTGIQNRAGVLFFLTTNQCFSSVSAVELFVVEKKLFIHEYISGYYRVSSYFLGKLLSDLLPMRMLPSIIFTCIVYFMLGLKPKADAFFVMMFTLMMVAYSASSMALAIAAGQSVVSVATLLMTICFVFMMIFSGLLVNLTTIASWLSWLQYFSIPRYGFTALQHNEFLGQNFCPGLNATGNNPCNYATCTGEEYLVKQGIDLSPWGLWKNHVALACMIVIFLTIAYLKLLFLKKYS
assayInfo: Inhibition of ABCG2 (unknown origin) in HEK293 cells assessed as maximal inhibition of mitoxantrone efflux at 1 uM by fluorescence based flow cytometry relative to control
Type: cell-based
experimentalContext: hek293, 1 µM
measuredQuantity: Imax (%)

[[record]]
chemsmiles = "CC[C@@H](C)[C@H](NC(=O)c1cc(=O)c2c(OCc3ccc(Br)cc3)cccc2o1)C(=O)N[C@H](C(=O)OC)C(C)C"
readoutunit = "%"
recordedmeasurement = 72

[[record]]
chemsmiles = "CC[C@@H](C)[C@H](NC(=O)c1cc(=O)c2c(OCc3ccc(Br)cc3)cccc2o1)C(=O)N[C@@H](CC(C)C)C(=O)OC"
readoutunit = "%"
recordedmeasurement = 52

[[record]]
chemsmiles = "COC(=O)[C@H](Cc1c[nH]c2ccccc12)NC(=O)c1cc(=O)c2c(OCc3ccc(Br)cc3)cccc2o1"
readoutunit = "%"
recordedmeasurement = 96

[[record]]
chemsmiles = "COC(=O)[C@H](Cc1c[nH]c2ccccc12)NC(=O)c1cc(=O)c2c(OCc3ccccc3Br)cccc2o1"
readoutunit = "%"
recordedmeasurement = 94

[[record]]
chemsmiles = "CC[C@@H](C)[C@H](NC(=O)c1cc(=O)c2c(OCc3ccccc3Br)cccc2o1)C(=O)N[C@H](C(=O)OC)C(C)C"
readoutunit = "%"
recordedmeasurement = 85

[[record]]
chemsmiles = "CC[C@@H](C)[C@H](NC(=O)c1cc(=O)c2c(OCc3ccccc3Br)cccc2o1)C(=O)N[C@@H](CC(C)C)C(=O)OC"
readoutunit = "%"
recordedmeasurement = 83

